# assayed_system: IL16_4, Q14005
# Sequence (Q14005 1229-1329): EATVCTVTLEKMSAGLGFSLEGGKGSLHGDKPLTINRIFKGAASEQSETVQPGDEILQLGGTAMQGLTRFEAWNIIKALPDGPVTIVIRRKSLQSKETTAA
# measurement_notes: holdup assay
# Parameters: key: below the threshold = too weak to quantify, mostly under pKd 3.1 to 4
# details: plain residues with an end cap or a label only (N-terminal biotin on a linker: ado-ado)
endpoint: pKd

// solved cases for pKd follow
INSERT INTO measurements (binder, val) VALUES
  ('PSDSVGKDVF [EGLN1, Q9GZT9]', 3.63),
  ('SSSVNVSSNL [CXCR1, P25024]', 'below the threshold'),
  ('QQGLLPHSSC [TYRO3, Q06418]', 'below the threshold'),
  ('FHSIKQSTAV [CRHR1, P34998]', 'below the threshold'),
  ('LVEEEEPMNL [HDAC7, Q8WUI4]', 'below the threshold');

Attention now turns to another entry.
Please fill in: pKd reported for QLGSPTADLA [SIPA1, Q96FS4] = below the threshold
